TARGET_OR_TEST_SYSTEM: Recombinant Human TNF-α/TNFSF1A (human, UniProt P01375 77-233)
Sequence (P01375 77-233 limits assumed): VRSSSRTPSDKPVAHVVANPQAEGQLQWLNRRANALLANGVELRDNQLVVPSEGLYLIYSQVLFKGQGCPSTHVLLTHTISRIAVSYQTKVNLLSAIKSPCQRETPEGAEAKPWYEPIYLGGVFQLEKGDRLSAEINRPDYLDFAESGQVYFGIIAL
PROCEDURE_TEXT: cell-based or functional assay
TNF-α neutralization assay IC50 (nM), L929 cells: recorded values
# value in nM; strip the unit string

BINDER: AB245 (antibody, V domains shown, also called hMAK195VH.1a / hMAK195VL.1a) VH: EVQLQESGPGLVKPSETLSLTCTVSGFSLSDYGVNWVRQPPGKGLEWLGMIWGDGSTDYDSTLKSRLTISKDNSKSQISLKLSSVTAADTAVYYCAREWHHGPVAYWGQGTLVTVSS VL: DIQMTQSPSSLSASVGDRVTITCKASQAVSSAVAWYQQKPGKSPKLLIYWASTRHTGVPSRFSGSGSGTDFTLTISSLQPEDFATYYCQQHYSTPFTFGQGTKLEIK
UNIT_NAME: nM
OBSERVED_VALUE: 0.072

Please supply the value of reported TNF-α neutralization assay IC50 (nM), L929 cells for the item AB263 (antibody, V domains shown, also called hMAK195VH.2b / hMAK195VL.2a) VH: EVQLVESGGGLVQPGGSLRLSCAASGFTLSDYGVNWVRQAPGKGLEWVSMIWGDGSTDYDSTLKSRFTISKDNSKNTLYLQMNSLRAEDTAVYYCAREWHHGPVAYWGQGTLVTVSS VL: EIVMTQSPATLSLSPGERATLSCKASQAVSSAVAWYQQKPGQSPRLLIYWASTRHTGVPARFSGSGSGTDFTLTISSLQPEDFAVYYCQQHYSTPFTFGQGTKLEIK
0.193

Look up and state reported TNF-α neutralization assay IC50 (nM), L929 cells for AB256 (antibody, V domains shown, also called hMAK195VH.2a / hMAK195VL.1) VH: EVQLVESGGGLVQPGGSLRLSCAVSGFTLSDYGVNWVRQAPGKGLEWLGMIWGDGSTDYDSTLKSRLTISKDNSKSTIYLQMNSLRAEDTAVYYCAREWHHGPVAYWGQGTLVTVSS VL: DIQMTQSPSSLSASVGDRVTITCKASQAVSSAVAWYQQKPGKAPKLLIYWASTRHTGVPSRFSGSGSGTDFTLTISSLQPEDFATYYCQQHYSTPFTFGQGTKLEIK
0.058

Indicate the recorded TNF-α neutralization assay IC50 (nM), L929 cells value for this binder: AB254 (antibody, V domains shown, also called hMAK195VH.2 / hMAK195VL.2) VH: EVQLVESGGGLVQPGGSLRLSCAASGFTFSDYGVNWVRQAPGKGLEWVSMIWGDGSTDYDSTLKSRFTISRDNSKNTLYLQMNSLRAEDTAVYYCAREWHHGPVAYWGQGTLVTVSS VL: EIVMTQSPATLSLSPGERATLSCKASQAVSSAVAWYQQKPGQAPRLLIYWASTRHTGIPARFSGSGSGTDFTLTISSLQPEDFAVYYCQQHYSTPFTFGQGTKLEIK
0.799
